Value source: patent US11396495B2

For each of the compounds below, state its IC50.
tgt: Human recombinant SSAO/VAP-1 (Homo sapiens (Human), UniProt Q16853)
Sequence (Q16853 whole entry): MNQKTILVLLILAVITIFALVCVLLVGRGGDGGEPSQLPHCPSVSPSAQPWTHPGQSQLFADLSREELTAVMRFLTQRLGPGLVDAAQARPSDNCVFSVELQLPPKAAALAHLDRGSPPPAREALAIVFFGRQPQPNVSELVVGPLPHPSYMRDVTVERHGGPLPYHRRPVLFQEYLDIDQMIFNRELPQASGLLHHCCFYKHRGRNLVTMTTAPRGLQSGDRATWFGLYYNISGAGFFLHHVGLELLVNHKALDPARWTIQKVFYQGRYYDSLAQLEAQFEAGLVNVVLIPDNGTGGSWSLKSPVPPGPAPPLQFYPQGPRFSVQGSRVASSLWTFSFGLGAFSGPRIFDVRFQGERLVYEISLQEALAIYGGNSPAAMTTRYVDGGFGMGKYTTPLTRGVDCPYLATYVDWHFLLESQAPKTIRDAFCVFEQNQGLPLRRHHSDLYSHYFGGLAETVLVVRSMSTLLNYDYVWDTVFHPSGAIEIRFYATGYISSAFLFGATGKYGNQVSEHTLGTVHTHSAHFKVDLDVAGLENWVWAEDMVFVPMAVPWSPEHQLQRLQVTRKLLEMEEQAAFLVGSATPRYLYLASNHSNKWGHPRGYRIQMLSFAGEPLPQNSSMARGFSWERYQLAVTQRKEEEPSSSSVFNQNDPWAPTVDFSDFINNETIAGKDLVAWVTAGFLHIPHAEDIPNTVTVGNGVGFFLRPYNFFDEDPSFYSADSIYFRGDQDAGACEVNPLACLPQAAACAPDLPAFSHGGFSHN
measurement-protocol: Determination of inhibitory activity of human recombinant SSAO/VAP-1 (Amplex Red, benzylamine)
Assay type: biochemical
condition-set: human recombinant SSAO/VAP-1, 30 min preincubation at room temperature; read-out: SSAO/VAP-1(Human recombinant protein) IC50/nM
Structures can show the parent of a compound that is named as a salt.
One number for each entry, in nM.

compound: NC/C(=C/F)COc1ccc2c(c1)CCN(C1CCOCC1)C2=O [Compound 17, hydrochloride]
metric-name: IC50
unit-descriptor: nM
value: 0.58

# batch size: 3; output IC50 per entry
1. NC/C(=C/F)COc1ccc2c(c1)CCN(c1nccs1)C2=O [Compound 41, hydrochloride]
2. CCOC(=O)CN1CCc2cc(OC/C(=C/F)CN)ccc2C1=O [Compound 12, hydrochloride]
3. NC/C(=C\F)COc1ccc2c(c1)CCN(c1ccccc1F)C2=O [Compound 34, hydrochloride]

Reply:
1: 0.63; 2: 0.14; 3: 1.16
